biological target: Integrin αvβ1 Receptor (Homo sapiens, UniProt P05556+P06756); experiment: Fluorescence polarization (FP) binding activity to integrin αvβ1 receptor (competition with Cyclo[-RGDy-K(5-FAM)]); details: Table 4, different integrin receptors
Sequence (P06756 31-992 limits assumed): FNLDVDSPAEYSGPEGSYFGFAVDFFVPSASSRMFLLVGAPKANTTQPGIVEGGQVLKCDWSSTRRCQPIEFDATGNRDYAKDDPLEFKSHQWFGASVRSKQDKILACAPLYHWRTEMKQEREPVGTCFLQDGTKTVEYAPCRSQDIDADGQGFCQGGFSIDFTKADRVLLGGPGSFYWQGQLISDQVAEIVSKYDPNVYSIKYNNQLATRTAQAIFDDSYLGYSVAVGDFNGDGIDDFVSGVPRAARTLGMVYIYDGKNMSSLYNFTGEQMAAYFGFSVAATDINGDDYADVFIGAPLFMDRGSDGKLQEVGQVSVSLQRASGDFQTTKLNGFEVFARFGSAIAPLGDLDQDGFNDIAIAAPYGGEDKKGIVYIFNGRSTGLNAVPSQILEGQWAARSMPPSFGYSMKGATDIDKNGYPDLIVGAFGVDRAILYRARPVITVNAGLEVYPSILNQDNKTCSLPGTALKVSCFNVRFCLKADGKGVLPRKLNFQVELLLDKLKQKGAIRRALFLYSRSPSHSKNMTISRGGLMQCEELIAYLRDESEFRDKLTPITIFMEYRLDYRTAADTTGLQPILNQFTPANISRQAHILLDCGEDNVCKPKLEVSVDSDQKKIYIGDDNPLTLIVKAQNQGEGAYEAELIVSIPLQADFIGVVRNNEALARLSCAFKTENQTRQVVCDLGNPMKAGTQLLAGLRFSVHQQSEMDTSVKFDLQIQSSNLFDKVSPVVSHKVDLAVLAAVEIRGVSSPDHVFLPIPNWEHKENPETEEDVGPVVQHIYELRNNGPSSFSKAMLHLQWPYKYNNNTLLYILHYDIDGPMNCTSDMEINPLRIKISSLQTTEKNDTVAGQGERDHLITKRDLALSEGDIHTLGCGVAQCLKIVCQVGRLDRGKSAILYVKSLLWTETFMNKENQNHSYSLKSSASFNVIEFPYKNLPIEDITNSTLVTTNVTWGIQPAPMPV
Sequence (P05556 21-728 limits assumed): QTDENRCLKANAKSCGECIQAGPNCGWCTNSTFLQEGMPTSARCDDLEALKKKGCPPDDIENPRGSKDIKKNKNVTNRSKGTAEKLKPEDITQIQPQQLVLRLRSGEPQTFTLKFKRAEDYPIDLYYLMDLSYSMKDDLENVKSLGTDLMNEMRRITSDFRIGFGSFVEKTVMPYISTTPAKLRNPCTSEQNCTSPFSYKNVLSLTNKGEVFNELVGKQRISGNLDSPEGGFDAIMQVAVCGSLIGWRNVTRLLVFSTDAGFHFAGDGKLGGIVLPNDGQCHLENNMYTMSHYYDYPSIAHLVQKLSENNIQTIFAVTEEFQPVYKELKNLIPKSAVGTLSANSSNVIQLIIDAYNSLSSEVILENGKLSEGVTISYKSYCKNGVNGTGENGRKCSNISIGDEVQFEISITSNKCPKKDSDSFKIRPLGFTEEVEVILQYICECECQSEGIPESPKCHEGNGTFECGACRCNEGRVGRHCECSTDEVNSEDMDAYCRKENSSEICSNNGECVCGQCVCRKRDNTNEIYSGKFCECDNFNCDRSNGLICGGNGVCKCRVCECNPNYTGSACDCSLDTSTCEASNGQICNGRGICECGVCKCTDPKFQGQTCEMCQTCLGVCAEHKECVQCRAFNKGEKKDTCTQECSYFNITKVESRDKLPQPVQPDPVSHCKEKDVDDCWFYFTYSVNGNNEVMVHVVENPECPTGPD
parameter measured: IC50 (nM)
Only the number, expressed in nM, is required.

# compound, recorded measurement
records = [
    ("Cc1ccnc(NCCCC(=O)NCC(=O)N[C@@H](CC(=O)O)c2ccc(-c3ccc(OCCOCCOCCOCCOCCN=[N+]=[N-])c4ccccc34)cc2)c1 [Compound 1, reference compound]", 9.7),
    ("Cc1nn(-c2cccc(C(CC(=O)O)CN3CC[C@@H](CCc4ccc5c(n4)NCCC5)C3)c2)c(C)c1OCCOCCOCCOCCOCCN=[N+]=[N-] (single isomer, unassigned) [Compound 14-P2]", 10.3),
]

Attention now turns to another entry.
stdin: Give its IC50 value. Item: Cc1ccnc(NCCC2CCN(CC(=O)NC(CC(=O)O)c3ccc(-c4ccc(OCCOCCOCCOCCOCCN=[N+]=[N-])c5ccccc45)cc3)C2=O)c1 (single isomer, unassigned) [Compound 5-P2]
stdout: 333
